# responders at 100 mg/kg annotations
# Tested on: maximal electroshock (MES) induced seizures
# Measurement Protocol: Maximal electroshock (MES) test
# Format: in vivo, mice
# Conditions: Mus musculus, ip; 100 mg/kg i.p., mice, 3 h; read-out: MES model, protected mice/total mice, 3 h (converted)
Result Type: responders at 100 mg/kg (%)

> print(dat)
                                   compound  measured.result
1  COc1cc(/C=C/C(=O)N2CCN(C(=O)CCC(=O)O[C@H]3C[C@H]4CC[C@]3(C)C4(C)C)CC2)cc(OC)c1OC [B7]                0
2  COc1cc(/C=C/C(=O)N2CCN(CCCC(=O)N3CCN(c4cccc(Cl)c4)CC3)CC2)cc(OC)c1OC [A13]                0
3  C/C=C/c1ccc(OC(=O)CCCN2CCN(C(=O)/C=C/c3cc(OC)c(OC)c(OC)c3)CC2)c(OC)c1 [A3]               25
4  COc1ccccc1N1CCN(C(=O)CCCN2CCN(C(=O)/C=C/c3cc(OC)c(OC)c(OC)c3)CC2)CC1 [A15]                0

----------
# responders at 100 mg/kg annotations
# Test system: maximal electroshock (MES) induced seizures
# Measurement Protocol: Maximal electroshock (MES) test
# Format: in vivo, mice
# Conditions: Mus musculus, ip; 100 mg/kg i.p., mice, 1 h; read-out: MES model, protected mice/total mice, 1 h (converted)
Result Type: responders at 100 mg/kg

> print(dat)
                                    compound              result.type  measured.result
 1  COc1cc(/C=C/C(=O)N2CCN(C(=O)CCC(=O)N3CCN(c4ccc(C(F)(F)F)cc4)CC3)CC2)cc(OC)c1OC  responders at 100 mg/kg              75%
 2  COc1ccccc1N1CCN(C(=O)CCCN2CCN(C(=O)/C=C/c3cc(OC)c(OC)c(OC)c3)CC2)CC1  responders at 100 mg/kg              75%
 3  COc1cc(/C=C/C(=O)N2CCN(CCCC(=O)O[C@H]3C[C@H]4CC[C@]3(C)C4(C)C)CC2)cc(OC)c1OC (relative stereo)  responders at 100 mg/kg              50%
 4  COc1cc(/C=C/C(=O)N2CCN(CCCC(=O)OCC=Cc3ccccc3)CC2)cc(OC)c1OC  responders at 100 mg/kg              50%
 5  COc1cc(/C=C/C(=O)N2CCN(CCCC(=O)N3CCN(c4cccc(Cl)c4Cl)CC3)CC2)cc(OC)c1OC  responders at 100 mg/kg              75%
 6  COc1ccccc1N1CCN(C(=O)CCC(=O)N2CCN(C(=O)/C=C/c3cc(OC)c(OC)c(OC)c3)CC2)CC1  responders at 100 mg/kg              75%
 7  COc1cc(/C=C/C(=O)N2CCN(CCCC(=O)O)CC2)cc(OC)c1OC  responders at 100 mg/kg              25%
 8  COc1cc(/C=C/C(=O)N2CCN(C(=O)CCC(=O)N3CCN(c4ncccn4)CC3)CC2)cc(OC)c1OC  responders at 100 mg/kg              50%
 9  C/C=C/c1ccc(OC(=O)CCC(=O)N2CCN(C(=O)/C=C/c3cc(OC)c(OC)c(OC)c3)CC2)c(OC)c1  responders at 100 mg/kg              75%
10  C=CCc1ccccc1OC(=O)CCCN1CCN(C(=O)/C=C/c2cc(OC)c(OC)c(OC)c2)CC1  responders at 100 mg/kg              50%
11  C=CCc1ccc(OC(=O)CCC(=O)N2CCN(C(=O)/C=C/c3cc(OC)c(OC)c(OC)c3)CC2)c(OC)c1  responders at 100 mg/kg              75%
12  COc1cc(/C=C/C(=O)N2CCN(CCCC(=O)N3CCN(c4nsc5ccccc45)CC3)CC2)cc(OC)c1OC  responders at 100 mg/kg              25%
13  COc1cc(/C=C/C(=O)N2CCN(C(=O)CCC(=O)N3CCN(c4cccc(Cl)c4)CC3)CC2)cc(OC)c1OC  responders at 100 mg/kg              25%
14  COc1cc(/C=C/C(=O)N2CCN(CCCC(=O)N3CCN(C(c4ccccc4)c4ccccc4)CC3)CC2)cc(OC)c1OC  responders at 100 mg/kg              50%
15  COc1cc(OC)c(OC)cc1/C=C/COC(=O)CCCN1CCN(C(=O)/C=C/c2cc(OC)c(OC)c(OC)c2)CC1  responders at 100 mg/kg              75%

----------
# Measurement Protocol: Acute neurotoxicity screening (rotarod test)
# Assay type: in vivo, mice
# Conditions: male, Kunming, mouse, in vivo, ip, 30 min post-administration, 95% confidence intervals in parentheses
# TD50 at 30 min annotations
Result Type: TD50 at 30 min (mg/kg)

> print(dat)
                                   molecule  measured.result
1  COc1cc(/C=C/C(=O)N2CCN(CCCC(=O)N3CCN(c4ccc(C(F)(F)F)cc4)CC3)CC2)cc(OC)c1OC [A14]              358
2  C/C=C/c1ccc(OC(=O)CCCN2CCN(C(=O)/C=C/c3cc(OC)c(OC)c(OC)c3)CC2)c(OC)c1 [A3]              443
3  COc1cc(/C=C/C(=O)N2CCN(CCCC(=O)N3CCN(c4cccc(Cl)c4Cl)CC3)CC2)cc(OC)c1OC [A12]              284
4  COc1cc(/C=C/C(=O)N2CCN(C(=O)CCC(=O)N3CCN(c4cccc(Cl)c4Cl)CC3)CC2)cc(OC)c1OC [B12]              417
5  COc1cc(/C=C/C(=O)N2CCN(C(=O)CCC(=O)N3CCN(C(c4ccc(F)cc4)c4ccc(F)cc4)CC3)CC2)cc(OC)c1OC [B9]              235
6  COc1cc(/C=C/C(=O)N2CCN(CCCC(=O)N3CCN(C(c4ccc(F)cc4)c4ccc(F)cc4)CC3)CC2)cc(OC)c1OC [A9]              305

----------
# Test system: maximal electroshock (MES) induced seizures
# Measurement Protocol: Maximal electroshock (MES) test
# Assay type: in vivo, mice
# Conditions: Mus musculus, ip; 100 mg/kg i.p., mice, 3 h; read-out: MES model, protected mice/total mice, 3 h (converted)
# responders at 100 mg/kg annotations
Result Type: responders at 100 mg/kg (%)

> print(dat)
                            compound.smiles  measured.result
1  COc1cc(/C=C/C(=O)N2CCN(C(=O)CCC(=O)N3CCN(c4cccc(Cl)c4Cl)CC3)CC2)cc(OC)c1OC               25
2  COc1cc(/C=C/C(=O)N2CCN(CCCC(=O)N3CCN(c4cccc(Cl)c4Cl)CC3)CC2)cc(OC)c1OC               25
3  COc1cc(/C=C/C(=O)N2CCN(CCCC(=O)N3CCN(c4ncccn4)CC3)CC2)cc(OC)c1OC                0
4  COc1cc(OC)c(OC)cc1/C=C/COC(=O)CCCN1CCN(C(=O)/C=C/c2cc(OC)c(OC)c(OC)c2)CC1                0
5  COc1cc(/C=C/C(=O)N2CCN(CCCC(=O)N3CCN(c4ccccc4)CC3)CC2)cc(OC)c1OC                0
6  COc1cc(/C=C/C(=O)N2CCN(C(=O)CCC(=O)N3CCN(c4ccc(C(F)(F)F)cc4)CC3)CC2)cc(OC)c1OC                0
7  COc1cc(/C=C/C(=O)N2CCN(CCCC(=O)N3CCN(C(c4ccc(F)cc4)c4ccc(F)cc4)CC3)CC2)cc(OC)c1OC                0
8  COc1cc(/C=C/C(=O)N2CCN(CCCC(=O)N3CCC(c4noc5cc(F)ccc45)CC3)CC2)cc(OC)c1OC                0

----------
# SCPTZ Latent Time (100 mg/kg, s) annotations
# Test system: scPTZ-induced seizures
# Measurement Protocol: Pentylenetetrazole (PTZ)-induced seizure test (scPTZ)
# Assay type: in vivo
# Conditions: 100 mg/kg i.p., PTZ 85 mg/kg s.c., mice
Result Type: SCPTZ Latent Time (100 mg/kg, s)

> print(dat)
                                   compound  measurement.units  measured.result
1  COc1cc(/C=C/C(=O)N2CCN(CCCC(=O)N3CCN(C(c4ccc(F)cc4)c4ccc(F)cc4)CC3)CC2)cc(OC)c1OC [A9]                  s            204.5
2  COc1cc(/C=C/C(=O)N2CCN(CCCC(=O)N3CCN(c4ccc(C(F)(F)F)cc4)CC3)CC2)cc(OC)c1OC [A14]                  s            233.5
3  COc1cc(/C=C/C(=O)N2CCN(CCCC(=O)N3CCN(c4cccc(Cl)c4Cl)CC3)CC2)cc(OC)c1OC [A12]                  s            161.5
4  C/C=C/c1ccc(OC(=O)CCCN2CCN(C(=O)/C=C/c3cc(OC)c(OC)c(OC)c3)CC2)c(OC)c1 [A3]                  s            222.0
5  COc1cc(/C=C/C(=O)N2CCN(C(=O)CCC(=O)N3CCN(c4cccc(Cl)c4Cl)CC3)CC2)cc(OC)c1OC [B12]                  s            230.3

The reported measurements were obtained from paper PMC12472621.
